Every entry's value here was drawn from the supplement of paper PMC13380429.

System: Calu-3
METHOD_SUMMARY: cell viability relative to DMSO; higher = less toxic
EXPERIMENTAL_PARAMETERS: 72 h; 10 nM
Reported cell viability by item:
Use % as the unit, but write only the number.

compound="CNC(=O)[C@@H](Cc1ccccc1)N(C)C(=O)[C@@H](Cc1ccc2ccccc2c1)N(C)C(=O)/C=C/CC(C)(C)N [tabimorelin]" target_system=Calu-3 result_number=100

Task: If you can, please state the reported cell viability value of Nc1nc(Cl)nc2c1ncn2[C@@H]1O[C@H](CO)[C@@H](O)[C@@H]1F [clofarabine] .
Result: 106

Task: If you can, please state the reported cell viability value of Cn1c(=O)c2c(ncn2CC(=O)Nc2ccc(-c3ccccc3)nn2)n(C)c1=O [ETC-159] .
Result: 94

Task: If you can, please state the reported cell viability value of Cc1ccc(/N=C/N(C)/C=N/c2ccc(C)cc2C)c(C)c1 [amitraz] .
Result: 104

Task: If you can, please state the reported cell viability value of C=C1/C(=C\C=C2/CCC[C@]3(C)[C@@H]([C@H](C)CCCC(O)(C(F)(F)F)C(F)(F)F)CC[C@@H]23)C[C@@H](O)C[C@@H]1O [falecalcitriol] .
Result: 99.3

Task: If you can, please state the reported cell viability value of `CCC[C@@H]1CC2=CC(=O)CC[C@]2(C)[C@H]2CC[C@@]3(C)[C@@H](CC[C@@]3(O)CCC(=O)O)[C@H]12` .
Result: 92.5

Task: If you can, please state the reported cell viability value of N[C@H](C(=O)O)c1cc(O)no1 [ibotenic-acid] .
Result: 93.7

Task: If you can, please state the reported cell viability value of COc1ccc(C2(O)CCC(N3CC[C@@H](NC(=O)CNC(=O)c4cccc(C(F)(F)F)c4)C3)CC2)cn1 (stereo partly specified) .
Result: 92.8

----------
Reported drug sensitivity score by item:
System: Caco-2
METHOD_SUMMARY: drug sensitivity score (DSS) for viability; higher = more toxic; extreme values may be limits of the assay
EXPERIMENTAL_PARAMETERS: 72 h
# print the numeric value only

compound=O=C(/C=C/c1ccc(O)c2c1[C@H](C(=O)O[C@H](Cc1ccc(O)c(O)c1)C(=O)O)[C@@H](c1ccc(O)c(O)c1)O2)O[C@H](Cc1ccc(O)c(O)c1)C(=O)O target_system=Caco-2 property="drug sensitivity score" result_number=0
compound=Cn1c(=O)c2c(ncn2CC(=O)Nc2ccc(-c3ccccc3)nn2)n(C)c1=O target_system=Caco-2 property="drug sensitivity score" result_number=0.5
compound=CCOC(N)=O target_system=Caco-2 property="drug sensitivity score" result_number=0

Task: Lab note: need drug sensitivity score for `Cc1ccc2cc(-c3c(C)ccc(C(=O)c4c(-c5ccccc5)n(C)n(-c5ccccc5)c4=O)c3N)ccc2n1` on Caco-2, anyone have it?
Result: 0

Task: Lab note: need drug sensitivity score for `O=S(=O)(O)c1ccc(O)cc1` on Caco-2, anyone have it?
Result: 0

----------
Reported cell viability by item:
Test system: Caco-2
METHOD_SUMMARY: cell viability relative to DMSO; higher = less toxic
EXPERIMENTAL_PARAMETERS: 72 h; 1 nM
Could you kindly put the unit after your number?

compound=Oc1nc(O)c2cn[nH]c2n1 target_system=Caco-2 property="cell viability" result=107%
compound=O=C(NC1CC1)c1cc(-c2cccs2)on1 target_system=Caco-2 property="cell viability" result=98.1%
compound=C[C@]12CC[C@@H](O)C[C@@H]1CC[C@@H]1[C@@H]2CC[C@]2(C)C(c3ccccc3)=CC[C@@H]12 target_system=Caco-2 property="cell viability" result=95%
compound=COc1ccc2nc3[nH]nc(C)c3c(NCCOCCO)c2c1 target_system=Caco-2 property="cell viability" result=103%

Task: Lab note: need cell viability for `CCOC(N)=O` on Caco-2, anyone have it?
Result: 93.5%

Task: Lab note: need cell viability for c1cnc2c([O][Ga]([O]c3cccc4cccnc34)[O]c3cccc4cccnc34)cccc2c1 [gallium-triquinolin-8-olate] on Caco-2, anyone have it?
Result: 94.3%

Task: Lab note: need cell viability for `CC(C)[C@H](N)C(=O)OCCOCn1cnc2c(=O)nc(N)[nH]c21` on Caco-2, anyone have it?
Result: 103%

----------
Tested on: HepG2
METHOD_SUMMARY: cell viability relative to DMSO; higher = less toxic
EXPERIMENTAL_PARAMETERS: 72 h; 1 nM
Reported cell viability by item:
Use % as the unit, but write only the number.

Study these solved cases before continuing.
compound="O=c1n(CCCN2CCN(c3cccc(Cl)c3)CC2)nc2ccccn12 [trazodone]" property="cell viability" result_number=95.8
compound="O=S(=O)(O)c1ccc(O)cc1 [4-phenolsulfonic-acid]" property="cell viability" result_number=104
compound="Cc1cc2sc(NC(=O)Cc3ccccc3)nc2cc1Cl [LH846]" property="cell viability" result_number=98.7
compound=Cc1ccc(C(=O)N(CCCN)[C@@H](c2oc3cc(Cl)ccc3c(=O)c2Cc2ccccc2)C(C)C)cc1 property="cell viability" result_number=102
compound="CC(C)(C#N)c1cc(Cn2cncn2)cc(C(C)(C)C#N)c1 [anastrozole]" property="cell viability" result_number=89.5

Task: If you can, please state the reported cell viability value of CC[C@H]1OC(=O)[C@H](C)[C@@H](O[C@H]2C[C@@](C)(OC)[C@@H](O)[C@H](C)O2)[C@H](C)[C@@H](O[C@@H]2O[C@H](C)C[C@H](N(C)C)[C@H]2O)[C@](C)(O)C[C@@H](C)CN(C)[C@H](C)[C@@H](O)[C@]1(C)O [azithromycin] .
Result: 111

Task: If you can, please state the reported cell viability value of O=C(O)CCc1ccc(NCc2cccc(Oc3ccccc3)c2)cc1 [GW-9508] .
Result: 97.1

Task: If you can, please state the reported cell viability value of CCNC(=O)[C@@H]1CCCN1C(=O)[C@H](CCCNC(=N)N)NC(=O)[C@H](CC(C)C)NC(=O)[C@@H](C)NC(=O)[C@H](Cc1ccc(O)cc1)NC(=O)[C@H](CO)NC(=O)[C@H](Cc1c[nH]c2ccccc12)NC(=O)[C@H](Cc1cnc[nH]1)NC(=O)[C@@H]1CCC(=O)N1 [alarelin] .
Result: 97.8

Task: If you can, please state the reported cell viability value of `CC(C)CC(=O)Nc1n[nH]c2c1CN(C(=O)C1CCN(C)CC1)C2(C)C` .
Result: 103

Task: If you can, please state the reported cell viability value of O=C(O[C@H]1CN2CCC1CC2)N(Cc1cc(F)c(F)c(F)c1)c1cccc(F)c1 [tarafenacin] .
Result: 115

Task: If you can, please state the reported cell viability value of `CCN1CCN(c2ccc(C(C)(C)NC(=O)c3cc4[nH]c5ccccc5c(=O)c4cc3F)cn2)CC1` .
Result: 95.7

----------
Tested on: U2OS
METHOD_SUMMARY: cell viability relative to DMSO; higher = less toxic
EXPERIMENTAL_PARAMETERS: 72 h; 100 nM
PROPERTY: cell viability (%)
Use % as the unit, but write only the number.

Study these solved cases before continuing.
compound=CC(C)OC(=O)OCOP(=O)(CO[C@H](C)Cn1cnc2c(N)ncnc21)OCOC(=O)OC(C)C units_text=% result_number=92.6
compound=CCNC(=O)CC[C@H](N)C(=O)O units_text=% result_number=95.8
compound=CCc1c(-c2ccccc2)c(-c2ccccc2)nn1-c1ccccc1-c1cccc(OCC(=O)O)c1 units_text=% result_number=98
compound=NCC[C@H](O)C(=O)N[C@@H]1C[C@H](N)[C@@H](O[C@H]2O[C@H](CN)[C@@H](O)[C@H](O)[C@H]2O)[C@H](O)[C@H]1O[C@H]1O[C@H](CO)[C@@H](O)[C@H](N)[C@H]1O units_text=% result_number=98.9
compound=COc1cccc2cc(-c3nc([C@H]4CC[C@H](C(=O)O)CC4)n4ncnc(N)c34)[nH]c12 units_text=% result_number=92.3

Task: If you can, please state the reported cell viability value of COc1ccc(C2(O)CCC(N3CC[C@@H](NC(=O)CNC(=O)c4cccc(C(F)(F)F)c4)C3)CC2)cn1 (stereo partly drawn) .
Result: 98.6

Task: If you can, please state the reported cell viability value of COc1cc2c(c(OC)c1OC)-c1c(cc3c(c1OC)OCO3)CC(C)C(C)C2 (stereo not drawn) .
Result: 102

Task: If you can, please state the reported cell viability value of `CCCCNc1nc(N)c2[nH]c(=O)n(Cc3ccc(OCCN(C)C)nc3)c2n1` .
Result: 99

Task: If you can, please state the reported cell viability value of `Cn1c(=O)c2[nH]c(Br)nc2n(C)c1=O` .
Result: 97.9

Task: If you can, please state the reported cell viability value of `CN(C)CCN(C)CCc1ccc(Cl)c(Cl)c1` .
Result: 93.4

Task: If you can, please state the reported cell viability value of CCCCCCCC/C=C/CCCCCCCC(=O)OC[C@H]1O[C@@H](n2ccc(N)nc2=O)C(F)(F)[C@@H]1O [gemcitabine-elaidate] .
Result: 70.2

Task: If you can, please state the reported cell viability value of CCCCCCCCCCCCCCCC(=O)OC[C@H](COP(=O)([O-])OCC[N+](C)(C)C)OC(=O)CCCCCCCCCCCCCCC [colfosceril-palmitate] .
Result: 94.8

Task: If you can, please state the reported cell viability value of `O=C(O)CCc1ccc(NCc2cccc(Oc3ccccc3)c2)cc1` .
Result: 98.6
